Assay: Cytotoxicity to cancer cells (KB cells) in culture was determined and the effective dose that causes 50 % cytotoxicity was reported.
Format: functional
Details: Homo sapiens, Cancer cell lines; read-out: ED50 (the source's name)
Exercise: for every item that follows, state its recorded EC50.
Lab book: enter the figure in µg/mL, no units written.

### Prompt Please give the measured EC50 for this molecule: CNc1nc(N)nc2c1ncn2C1CC(CO)C(O)C1O (stereo not given)
### Response 18

### Prompt Same for Nc1nc(S)c2ncn(C3CC(CO)C(O)C3O)c2n1 (stereo not given)
### Response 50

### Prompt Same for Nc1nc(Cl)c2nnn(C3CC(CO)C(O)C3O)c2n1 (stereo not given)
### Response 8

### Prompt Same for Nc1nc(N)c2ncn(C3CC(CO)C(O)C3O)c2n1 (stereo not given)
### Response 19

The measured values listed here are drawn from ChEMBL document CHEMBL1122656.
